The entries below come with measured Kd values attached.
Target: wildtype human α-synuclein (human, UniProt P37840 1-140)
Experiment: SPR (Biacore), antibody captured on anti-human IgG chip, alpha synuclein flowed over, 1:1 model, global fit
Only the number, expressed in nM, is required.

{"columns": ["Binder", "Val"],
 "data": [
  ["humanized 5C1 H5L4 (antibody, V domains shown, The human constant region is not specified; also called h5C1_H5L4) VH: QVQLVQSGAELKKPGSSVKVSCKASGYTFTNYWMNWVRQAPGQGLEWIGATNPNNGYTDYNQRFKDRVTITADKSTNTAYMELSSLRSEDTAVYYCASGGHLAYWGQGTLVTVSS VL: DIVMTQSPLSLSVSPGEPASISCRSSQSLFHSKGNTYLHWYLQKPGQSPQLLIYRVSNRFSGVPDRFSGSGSGTDFTLKISRVEAEDVGVYFCSQSAHVPWTFGGGTKVEIK", 1060]
]}

Moving on to the next binder.
Looking for the measured Kd of murine 5C1 antibody (antibody, mouse IgG1, V domains shown, also called m5C1; mouse 5C1) VH: QVQLQQSGAELAKPGTSVQMSCKASGYTFTNYWMNWIKARPGQGLEWIGATNPNNGYTDYNQRFKDKAILTADKSSNTAYMHLSSLTSEDSAVYFCASGGHLAYWGQGTVVTVSA VL: DVVMTQIPLYLSVSPGDQASISCRSSQSLFHSKGNTYLHWYLQKPGQSPKLLINRVSNRFSGVPDRFSGSGSGTDFTLKISGVEAEDLGVYFCSQSAHVPWTFGGGTKLEIR , can you help?
68.7
